// reported MIC per item
- System: Staphylococcus aureus
- Measurement Protocol: Antimicrobial activity against methicillin-resistant Staphylococcus aureus ATCC 43300 assessed as inhibition of visible bacterial growth incubated for 18 hrs by CLSI based analysis
- Format: functional

Below, 2 molecules whose answers are already recorded.
Given Smiles	Experimental System	Reported Result
CC(C)C[C@H]1NC(=O)[C@H](Cc2c(C(c3ccccc3)(c3ccccc3)c3ccccc3)[nH]c3ccccc23)NC(=O)[C@@H](C(C)C)NC(=O)[C@@H]2CSC(N2)[C@H](C(C)C)NC(=O)[C@@H](C(C)C)NC(=O)[C@H](C(C)C)NC1=O	Staphylococcus aureus	> 50 µg/mL
CC(C)C[C@H]1NC(=O)[C@H](Cc2c(C(c3ccccc3)c3ccccc3)[nH]c3ccccc23)NC(=O)[C@@H](C(C)C)NC(=O)[C@@H]2CSC(N2)[C@H](C(C)C)NC(=O)[C@@H](C(C)C)NC(=O)[C@H](C(C)C)NC1=O	Staphylococcus aureus	> 50 µg/mL

Continue with the next molecule.
[ask] Can you share its MIC? I mean this molecule: CC(C)C[C@H]1NC(=O)[C@H](Cc2c[nH]c3ccccc23)NC(=O)[C@@H](C(C)C)NC(=O)[C@@H]2CSC(N2)[C@H](C(C)C)NC(=O)[C@@H](CCCCN)NC(=O)[C@H](C(C)C)NC1=O
[reply] > 50 µg/mL

###

Quick reference: MIC of the listed items.
- System: Staphylococcus epidermidis
- Measurement Protocol: Antimicrobial activity against Staphylococcus epidermidis ATCC 12228 assessed as inhibition of visible bacterial growth incubated for 18 hrs by CLSI based analysis
- Type: functional
Numeric answer only, unit µg/mL assumed.

Given Smiles	Assay Readout	Unit Label	Reported Result
CC(C)[C@@H]1NC(=O)[C@@H](C(C)C)NC(=O)[C@H](C(C)C)NC(=O)[C@@H](CCCCN)NC(=O)[C@H](Cc2c(C(c3ccccc3)c3ccccc3)[nH]c3ccccc23)NC(=O)[C@@H](C(C)C)NC(=O)[C@@H]2CSC1N2	MIC	µg/mL	6.25
CC(C)C[C@H]1NC(=O)[C@H](Cc2c(C(c3ccccc3)(c3ccccc3)c3ccccc3)[nH]c3ccccc23)NC(=O)[C@@H](C(C)C)NC(=O)[C@@H]2CSC(N2)[C@H](C(C)C)NC(=O)[C@@H](C(C)C)NC(=O)[C@H](CCCCN)NC1=O	MIC	µg/mL	6.25
C#CC[C@H]1NC(=O)[C@@H]2CSC(N2)[C@H](C(C)C)NC(=O)[C@@H](C(C)C)NC(=O)[C@H](C(C)C)NC(=O)[C@@H](CCCCN)NC(=O)[C@H](Cc2c(C(c3ccccc3)(c3ccccc3)c3ccccc3)[nH]c3ccccc23)NC1=O	MIC	µg/mL	6.25
CC(C)C[C@H]1NC(=O)[C@H](Cc2c(C(c3ccccc3)c3ccccc3)[nH]c3ccccc23)NC(=O)[C@@H](CCCCN)NC(=O)[C@@H]2CSC(N2)[C@H](C(C)C)NC(=O)[C@@H](C(C)C)NC(=O)[C@H](C(C)C)NC1=O	MIC	µg/mL	25

Turning now to a further record.
[ask] Given the compound CN[C@H](CC(C)C)C(=O)N[C@H]1C(=O)N[C@@H](CC(N)=O)C(=O)N[C@H]2C(=O)N[C@H]3C(=O)N[C@H](C(=O)N[C@H](C(=O)O)c4cc(O)cc(O)c4-c4cc3ccc4O)[C@H](O)c3ccc(c(Cl)c3)Oc3cc2cc(c3O[C@@H]2O[C@H](CO)[C@@H](O)[C@H](O)[C@H]2O[C@H]2C[C@](C)(N)[C@H](O)[C@H](C)O2)Oc2ccc(cc2Cl)[C@H]1O , what is its reported MIC?
[reply] 0.39

###

- Measurement Protocol: Therapeutic index, ratio of HC5 for hemolytic activity in mouse Red blood cell to MIC for antimicrobial activity against Staphylococcus aureus ATCC 25923 assessed as inhibition of visible bacterial growth
- Type: toxicity, cell-based, RBC
- Stated Conditions: red blood cells, read-out: TI
Assay Readout: selectivity ratio
The answer should be written as a number, with no unit following it.

# example entries with known answers
Given Smiles	selectivity ratio
CC(C)[C@@H]1NC(=O)[C@@H](C(C)C)NC(=O)[C@H](C(C)C)NC(=O)[C@@H](CCCCN)NC(=O)[C@H](Cc2c(C(c3ccccc3)c3ccccc3)[nH]c3ccccc23)NC(=O)[C@@H](C(C)C)NC(=O)[C@@H]2CSC1N2	5.93
CC(C)C[C@H]1NC(=O)[C@H](Cc2c(C(c3ccccc3)(c3ccccc3)c3ccccc3)[nH]c3ccccc23)NC(=O)[C@@H](C(C)C)NC(=O)[C@@H]2CSC(N2)[C@H](C(C)C)NC(=O)[C@@H](CCCCN)NC(=O)[C@H](C(C)C)NC1=O	14.1

[ask] // selectivity ratio lookup, key: CC(C)C[C@H]1NC(=O)[C@H](Cc2c(C(c3ccccc3)(c3ccccc3)c3ccccc3)[nH]c3ccccc23)NC(=O)[C@@H](CCCCN)NC(=O)[C@@H]2CSC(N2)[C@H](C(C)C)NC(=O)[C@@H](C(C)C)NC(=O)[C@H](C(C)C)NC1=O
[reply] 7.44

[ask] Similarly, CC(C)C[C@H]1NC(=O)[C@H](Cc2c(C(c3ccccc3)c3ccccc3)[nH]c3ccccc23)NC(=O)[C@@H](C(C)C)NC(=O)[C@@H]2CSC(N2)[C@H](C(C)C)NC(=O)[C@@H](C(C)C)NC(=O)[C@H](CCCCN)NC1=O ?
[reply] 2.59

###

- Test system: Staphylococcus epidermidis
- Measurement Protocol: Antimicrobial activity against Staphylococcus epidermidis ATCC 12228 assessed as inhibition of visible bacterial growth incubated for 18 hrs by CLSI based analysis
- Type: functional
Measured MIC, listed per entry.

Given Smiles	Experimental System	MIC
CC(C)C[C@H]1NC(=O)[C@H](Cc2c[nH]c3ccccc23)NC(=O)[C@@H](C(C)C)NC(=O)[C@@H]2CSC(N2)[C@H](C(C)C)NC(=O)[C@@H](CCCCN)NC(=O)[C@H](C(C)C)NC1=O	Staphylococcus epidermidis	> 50 µg/mL
CC(C)C[C@H]1NC(=O)[C@H](Cc2c(C(c3ccccc3)(c3ccccc3)c3ccccc3)[nH]c3ccccc23)NC(=O)[C@@H](C(C)C)NC(=O)[C@@H]2CSC(N2)[C@H](C(C)C)NC(=O)[C@@H](C(C)C)NC(=O)[C@H](C(C)C)NC1=O	Staphylococcus epidermidis	> 50 µg/mL

Then there is this compound:
[ask] Any idea what MIC came out for CC(C)C[C@H]1NC(=O)[C@H](Cc2c(C(c3ccccc3)c3ccccc3)[nH]c3ccccc23)NC(=O)[C@@H](C(C)C)NC(=O)[C@@H]2CSC(N2)[C@H](C(C)C)NC(=O)[C@@H](C(C)C)NC(=O)[C@H](C(C)C)NC1=O on Staphylococcus epidermidis?
[reply] > 50 µg/mL

Reference source: ChEMBL document CHEMBL6103613
